Experiment: small-molecule microarray binders of probe aLefty2, primary screen, biochemical, biotinylated probe, 635/667 nm fluorescence (AID 1094);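 also: score merges spot fluorescence near 667 nm with spot signal-to-noise ratio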
Conditions: higher = more signal
Each entry gets class 0 if its composite z-score stays under -0.007, and class 1 if its composite z-score is -0.007 or above.

MOLECULE: COC(=O)[C@@]1(Cc2ccc(OC)cc2)[C@H]2c3cc(C(=O)N(C)C)n(Cc4ccccc4)c3C[C@H]2CN1C(=O)c1ccccc1
CAT: class 1
--
MOLECULE: COC(=O)[C@@]1(Cc2ccc(F)cc2)[C@H]2c3cc(C(=O)N4CCCC4)n(CCc4c[nH]c5ccc(OC)cc45)c3C[C@H]2CN1C(=O)c1ccccc1
CAT: class 1
--
MOLECULE: CN1C2C=C(CCCO)C(C3C(=O)N(C(N)=O)C(=O)C32)C1c1cccs1 (configuration not stated)
CAT: class 1
--
MOLECULE: CCOC(=CC(=O)OC)CC(O)c1cccc(Cl)c1 (configuration not stated)
CAT: class 0
--
MOLECULE: COCCOC(=O)N1C(=O)[C@@]2(c3cc(C#CCNC(N)=O)ccc31)[C@H](C(=O)N1CCCCCCC1)[C@H]1C(=O)O[C@H](c3ccccc3)[C@H](c3ccccc3)N1[C@@H]2c1ccc(O)cc1
CAT: class 1

Problem: Hello, I need to know if `C=CCOC(=O)[C@H]1[C@@H]2C(=O)O[C@@H](c3ccccc3)[C@@H](c3ccccc3)N2[C@@H](c2ccc(OCCOC(=O)[C@H]3C[C@H]4C(=O)N[C@@H](CCCC[N+](C)(C)C)C(=O)N4[C@H]3c3cccc(OCCO)c3)cc2)[C@]12C(=O)Nc1ccc(I)cc12` has measured composite z-score not below -0.007. Thanks!
Result: class 0

Just for reference, PubChem BioAssay is where these values come from.
